test: Clearance in Wistar rat administered as single dose; format: ADME, organism-based; details: in vivo
Returns met if the recorded clearance is greater than or equal to 100 mL/min/kg, and not met otherwise.

STRUCTURE | CATEGORY LABEL
CCOc1cc(CN2CCC(Nc3nc4cc(S(=O)(=O)CC)ccc4o3)CC2)ccc1OC | met
CCOc1cc(CN2CCC(Nc3nc4ccccc4o3)CC2)ccc1OC | not met
CCOc1cc(CN2CCC(Nc3nc4cc(C(N)=O)ccc4o3)CC2)cc(OCC)c1F | not met
CCOc1cc(CN2CCC(Nc3nc4cc(NS(=O)(=O)c5cn(C)cn5)ccc4o3)CC2)ccc1OC | not met

###

organism: Homo sapiens; assay: Selectivity ratio of Ki for human histamine H1 receptor to Ki for human SST5 receptor
RESULT TYPE: Ratio Ki

STRUCTURE | REPORTED RELATION | EXPERIMENTAL VALUE
CCOc1cc(CN2CCC(Nc3nc4cc(S(N)(=O)=O)ccc4o3)CC2)ccc1OC | = | 1
CCOc1cc(CN2CCC(Nc3nc4cc(Cl)c(S(N)(=O)=O)cc4o3)CC2)ccc1F | = | 5.5
CCOc1cc(CN2CCC(Nc3nc4cc(C(=O)O)ccc4o3)CC2)cc(OCC)c1Cl | > | 200
CCOc1cc(CN2CCC(Nc3nc4ccccc4o3)CC2)ccc1F | = | 4.3
CCOc1cc(CN2CCC(Nc3nc4ccccc4o3)CC2)cc(OC2CCOCC2)c1 | = | 18
CCOc1cc(CN2CCC(Nc3nc4cc(NC(=O)C5CCC5)ccc4o3)CC2)ccc1OC | = | 5.1
CCOc1cc(CN2CCC(Nc3nc4ccccc4o3)CC2)ccc1OC | = | 5.2
CCOc1cc(CN2CCC(Nc3nc4cc(S(=O)(=O)CC)ccc4o3)CC2)cc(OC2CCOCC2)c1 | = | 698
CCOc1cc(CN2CCC(Nc3nc4cc(NS(=O)(=O)c5ccccc5)ccc4o3)CC2)ccc1OC | = | 1
CCOc1cc(CN2CCC(Nc3nc4cc(S(N)(=O)=O)ccc4o3)CC2)cc(OCC)c1N | = | 200
CCOc1cc(CN2CCC(Nc3nc4cc(Cl)c(S(N)(=O)=O)cc4o3)CC2)ccc1OC | = | 3
CCOc1cc(CN2CCC(Nc3nc4ccccc4o3)CC2)ccc1Cl | = | 2.4
CCOc1cc(CN2CCC(Nc3nc4cc(S(=O)(=O)N(C)C)ccc4o3)CC2)cc(OCC)c1-n1cccc1 | = | 96

###

test: Solubility in phosphate buffer at pH 6.5 by lyophilization solubility assay; type: physicochemical
Form field: solubility (one value per entry).

STRUCTURE | REPORTED RELATION | solubility (µg/mL)
CCOc1cc(CN2CCC(Nc3nc4cc(Cl)c(S(N)(=O)=O)cc4o3)CC2)cc(OCC)c1F | = | 32
CCOc1cc(CN2CCC(Nc3nc4ccccc4o3)CC2)ccc1Cl | = | 44
CCOc1cc(CN2CCC(Nc3nc4cc(C(N)=O)ccc4o3)CC2)cc(OCC)c1F | = | 148
CCOc1cc(CN2CCC(Nc3nc4cc(S(N)(=O)=O)ccc4o3)CC2)ccc1OC | > | 614
CCOc1cc(CN2CCC(Nc3nc4ccc(C(=O)O)cc4o3)CC2)ccc1Cl | = | 7
CCOc1cc(CN2CCC(Nc3nc4ccccc4o3)CC2)cc(OC2CCOCC2)c1 | = | 212
CCOc1cc(CN2CCC(Nc3nc4ccccc4o3)CC2)ccc1F | > | 452
CCOc1cc(CN2CCC(Nc3nc4cc(NC(=O)C5CCC5)ccc4o3)CC2)ccc1OC | > | 638
CCOc1cc(CN2CCC(Nc3nc4cc(Cl)c(S(N)(=O)=O)cc4o3)CC2)ccc1F | = | 32
CCOc1cc(CN2CCC(Nc3nc4cc(NS(=O)(=O)c5cn(C)cn5)ccc4o3)CC2)ccc1OC | > | 720

###

This section presents compounds with their documented pKa values.
test: Dissociation constant, pKa by spectrophotometry; assay type: physicochemical
RESULT TYPE: pKa

STRUCTURE | RESULT TYPE | EXPERIMENTAL VALUE
CCOc1cc(CN2CCC(Nc3nc4ccccc4o3)CC2)ccc1F | pKa | 7.79
CCOc1cc(CN2CCC(Nc3nc4ccccc4o3)CC2)ccc1Cl | pKa | 7.63
CCOc1cc(CN2CCC(Nc3nc4cc(NS(=O)(=O)c5cn(C)cn5)ccc4o3)CC2)ccc1OC | pKa | 7.91
CCOc1cc(CN2CCC(Nc3nc4cc(S(N)(=O)=O)ccc4o3)CC2)cc(OCC)c1N | pKa | 8.28
CCOc1cc(CN2CCC(Nc3nc4cc(S(=O)(=O)CC)ccc4o3)CC2)ccc1OC | pKa | 8.1
CCOc1cc(CN2CCC(Nc3nc4cc(C(N)=O)ccc4o3)CC2)cc(OCC)c1F | pKa | 7.72
CCOc1cc(CN2CCC(Nc3nc4cc(Cl)c(S(N)(=O)=O)cc4o3)CC2)cc(OCC)c1F | pKa | 7.61
CCOc1cc(CN2CCC(Nc3nc4cc(S(N)(=O)=O)ccc4o3)CC2)ccc1OC | pKa | 8.05
CCOc1cc(CN2CCC(Nc3nc4cc(Cl)c(S(N)(=O)=O)cc4o3)CC2)ccc1OC | pKa | 7.92
CCOc1cc(CN2CCC(Nc3nc4cc(S(=O)(=O)CC)ccc4o3)CC2)cc(OC2CCOCC2)c1 | pKa | 7.55
CCOc1cc(CN2CCC(Nc3nc4ccccc4o3)CC2)cc(OC2CCOCC2)c1 | pKa | 7.76
CCOc1cc(CN2CCC(Nc3nc4cc(NS(=O)(=O)c5ccccc5)ccc4o3)CC2)ccc1OC | pKa | 7.72
CCOc1cc(CN2CCC(Nc3nc4ccccc4o3)CC2)ccc1OC | pKa | 8.3
CCOc1cc(CN2CCC(Nc3nc4cc(Cl)c(S(N)(=O)=O)cc4o3)CC2)ccc1F | pKa | 7.61

###

target: Histamine H1 receptor (Homo sapiens, UniProt P35367)
Sequence (P35367 whole entry): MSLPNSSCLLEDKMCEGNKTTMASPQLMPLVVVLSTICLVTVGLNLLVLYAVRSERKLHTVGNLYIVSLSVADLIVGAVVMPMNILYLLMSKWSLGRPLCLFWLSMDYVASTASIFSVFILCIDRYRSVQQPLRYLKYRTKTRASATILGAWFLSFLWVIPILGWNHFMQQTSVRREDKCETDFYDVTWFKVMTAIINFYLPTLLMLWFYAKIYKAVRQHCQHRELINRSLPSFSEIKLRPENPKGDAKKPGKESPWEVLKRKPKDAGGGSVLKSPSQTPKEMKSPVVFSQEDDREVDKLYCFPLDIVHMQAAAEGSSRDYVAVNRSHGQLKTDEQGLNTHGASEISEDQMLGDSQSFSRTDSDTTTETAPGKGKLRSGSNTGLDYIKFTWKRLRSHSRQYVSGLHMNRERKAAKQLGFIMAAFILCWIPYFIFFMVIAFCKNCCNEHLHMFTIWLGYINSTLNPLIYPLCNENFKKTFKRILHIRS
Criterion: Ki strictly less than 0.8 µM. Met: satisfied. Not met: not satisfied.

STRUCTURE | CATEGORY LABEL
CCOc1cc(CN2CCC(Nc3nc4ccccc4o3)CC2)ccc1F | not satisfied
CCOc1cc(CN2CCC(Nc3nc4cc(S(N)(=O)=O)ccc4o3)CC2)ccc1OC | satisfied
CCOc1cc(CN2CCC(Nc3nc4cc(Cl)c(S(N)(=O)=O)cc4o3)CC2)ccc1OC | not satisfied
CCOc1cc(CN2CCC(Nc3nc4ccccc4o3)CC2)cc(OC2CCOCC2)c1 | not satisfied
CCOc1cc(CN2CCC(Nc3nc4cc(Cl)c(S(N)(=O)=O)cc4o3)CC2)ccc1F | not satisfied

###

experiment: Volume of distribution at steady state in Wistar rat administered as single dose; type: ADME, organism-based; details: in vivo, read-out: Vdss
Examples of molecules with documented Vd follow.

STRUCTURE | Vd (L/kg)
CCOc1cc(CN2CCC(Nc3nc4ccccc4o3)CC2)ccc1OC | 4.1
CCOc1cc(CN2CCC(Nc3nc4ccc(C(=O)O)cc4o3)CC2)ccc1Cl | 4.3
CCOc1cc(CN2CCC(Nc3nc4cc(C(=O)O)ccc4o3)CC2)cc(OCC)c1Cl | 1.8
CCOc1cc(CN2CCC(Nc3nc4cc(S(=O)(=O)CC)ccc4o3)CC2)ccc1OC | 3.8
CCOc1cc(CN2CCC(Nc3nc4cc(S(N)(=O)=O)ccc4o3)CC2)ccc1OC | 8.2
CCOc1cc(CN2CCC(Nc3nc4cc(NS(=O)(=O)c5cn(C)cn5)ccc4o3)CC2)ccc1OC | 2.2
CCOc1cc(CN2CCC(Nc3nc4ccc(Cl)cc4o3)CC2)ccc1Cl | 4.6
CCOc1cc(CN2CCC(Nc3nc4cc(C(N)=O)ccc4o3)CC2)cc(OCC)c1F | 3.3
CCOc1cc(CN2CCC(Nc3nc4ccc(C(=O)O)cc4o3)CC2)cc(OCC)c1F | 1.5

###

assay: sPermeability by PAMPA; type: ADME; details: read-out: permeability

STRUCTURE | Papp (×10⁻⁶ cm/s)
CCOc1cc(CN2CCC(Nc3nc4ccc(C(=O)O)cc4o3)CC2)ccc1Cl | 3.6
CCOc1cc(CN2CCC(Nc3nc4cc(C(N)=O)ccc4o3)CC2)cc(OCC)c1F | 1.61
CCOc1cc(CN2CCC(Nc3nc4cc(S(=O)(=O)N(C)C)ccc4o3)CC2)cc(OCC)c1-n1cccc1 | 1.31
CCOc1cc(CN2CCC(Nc3nc4cc(C(=O)O)ccc4o3)CC2)cc(OCC)c1Cl | 2.09
CCOc1cc(CN2CCC(Nc3nc4cc(Cl)c(S(N)(=O)=O)cc4o3)CC2)ccc1OC | 1.1
CCOc1cc(CN2CCC(Nc3nc4ccc(C(=O)O)cc4o3)CC2)cc(OCC)c1F | 2.89
CCOc1cc(CN2CCC(Nc3nc4cc(Cl)c(S(N)(=O)=O)cc4o3)CC2)cc(OCC)c1F | 2.45
CCOc1cc(CN2CCC(Nc3nc4cc(NS(=O)(=O)c5cn(C)cn5)ccc4o3)CC2)ccc1OC | 0.49
CCOc1cc(CN2CCC(Nc3nc4cc(NS(=O)(=O)c5ccccc5)ccc4o3)CC2)ccc1OC | 2.2
CCOc1cc(CN2CCC(Nc3nc4ccc(Cl)cc4o3)CC2)ccc1Cl | 4.81
CCOc1cc(CN2CCC(Nc3nc4cc(NC(=O)C5CCC5)ccc4o3)CC2)ccc1OC | 1.1
CCOc1cc(CN2CCC(Nc3nc4cc(Cl)c(S(N)(=O)=O)cc4o3)CC2)ccc1F | 2.45
CCOc1cc(CN2CCC(Nc3nc4cc(S(=O)(=O)CC)ccc4o3)CC2)cc(OC2CCOCC2)c1 | 1.75
CCOc1cc(CN2CCC(Nc3nc4cc(S(N)(=O)=O)ccc4o3)CC2)ccc1OC | 1.64
CCOc1cc(CN2CCC(Nc3nc4ccccc4o3)CC2)cc(OC2CCOCC2)c1 | 2.05
CCOc1cc(CN2CCC(Nc3nc4ccccc4o3)CC2)ccc1F | 4.33
CCOc1cc(CN2CCC(Nc3nc4ccccc4o3)CC2)ccc1Cl | 0.49
CCOc1cc(CN2CCC(Nc3nc4cc(S(=O)(=O)CC)ccc4o3)CC2)ccc1OC | 1.63
